# Tested on: Plasmodium falciparum
# experiment-description: Calibr Malaria Delayed Death Assay SOP
# Format: functional, organism-based
# Design: scale not given: in the data most compounds retested in dose-response had high values
# cond: concentration 4.99e-06 (unit not given; other assays of the set use mol/L)
The whole screen tested about 38,000 compounds, of which about 1,200 (3.2%) showed an effect of 50% or more. The median lay at about -58%. For the sample, strong results were picked, then their nearest neighbours and some compounds at random.
test-readout: Percent Effect (%)
Express it in %; write the number only.

Worked cases, Percent Effect given:
CN(C)[C@H]1CCN(c2ccnc(C(=O)NCc3ccco3)c2)C1 ... -104.8
CCC(=O)NCC(CC)Oc1cccc(F)c1 (stereo not given) ... -6.3
c1cc(-c2c[nH]nc2C2CCCCC2)nc(N2CCCCCC2)n1 ... -3.373
NC(=O)C1CCN(c2nccc(-c3c[nH]nc3C3CCCCC3)n2)CC1 ... 12.3

Provide only the value of recorded Percent Effect for CCN1CCC2(CC1)CC(Nc1ncccn1)CO2 (stereo not given)
-15.58

====

# Tested on: Plasmodium falciparum
# experiment-description: Calibr Malaria Delayed Death Assay SOP
# Type: functional, organism-based
# Design: scale not given: in the data most compounds retested in dose-response had high values
# cond: concentration 4.99e-06 (unit not given; other assays of the set use mol/L)
The whole screen tested about 38,000 compounds, of which about 1,200 (3.2%) showed an effect of 50% or more. The median lay at about -58%. For the sample, strong results were picked, then their nearest neighbours and some compounds at random.
Mark Y for Percent Effect under -70%, N if at or over.

Reference set (5 entries):
CC1(c2ccccc2)CCCN(C(=O)c2ccn3nnnc3c2)C1 (centres undefined) ... Y
Cc1nn(C)c(Oc2ccc(Cl)cc2)c1CN1CCC(CN)C1 (centres undefined) ... N
Cc1cc(C(=O)N2CC(O)CO2)c2cccc(C)c2n1 (centres undefined) ... Y
Cc1cc2nc(CN(C)c3ccc(Cl)cc3)cc(=O)n2o1 ... Y
COCCn1cncc1CN1CCC(C(C)=O)(c2ccccc2)CC1 ... N

I wonder whether Cc1cc2[nH]c(CN3CCCCC3c3cccc(F)c3)cc(=O)n2n1 (centres undefined) has Percent Effect below -70%. Can you tell?
N

I wonder whether Cc1nn(C)c(Cl)c1CN1CCN(c2nccs2)C(C)C1 (centres undefined) has Percent Effect below -70%. Can you tell?
N

I wonder whether CC(NCc1cn(CCC(N)=O)c2ccccc12)c1nncn1C (centres undefined) has Percent Effect below -70%. Can you tell?
Y

I wonder whether COc1ccc(CN2CCCC2c2cccc(F)c2)c(OC)c1OC (centres undefined) has Percent Effect below -70%. Can you tell?
N

I wonder whether COc1cccc(CN2CCCCCC2c2cccs2)c1OC (centres undefined) has Percent Effect below -70%. Can you tell?
Y

I wonder whether CS(=O)(=O)c1ccc(CN2CCCCC2c2cccc(F)c2)cc1 (centres undefined) has Percent Effect below -70%. Can you tell?
N

I wonder whether COc1cccc(CN2CCCC2c2cccc(F)c2)c1OC (centres undefined) has Percent Effect below -70%. Can you tell?
N

I wonder whether CC1(c2ccccc2)CCC(=O)N(CCN2CCOCC2)C1 (centres undefined) has Percent Effect below -70%. Can you tell?
N

====

# Tested on: Plasmodium falciparum
# experiment-description: Calibr Malaria Delayed Death Assay SOP
# Assay type: functional, organism-based
# Parameters: scale not given: in the data most compounds retested in dose-response had high values
# cond: concentration 4.99e-06 (unit not given; other assays of the set use mol/L)
The whole screen tested about 38,000 compounds, of which about 1,200 (3.2%) showed an effect of 50% or more. The median lay at about -58%. What follows is part of a selection rich in strong results, with near analogues and random picks from the rest.
The entries below are paired with their reported Percent Effect.
Express it in %; write the number only.

CCOCc1cncc2c1CCN(C(=O)c1cscn1)C2.O=C(O)C(F)(F)F ... -50.24

Tell me Percent Effect of Cc1nc(CN(C)C2CCN(CC3CCOCC3)C2)no1 (stereo unspecified) when tested on Plasmodium falciparum.
-100.7

Tell me Percent Effect of CC(CNC(=O)C1(c2ccc(F)cc2)CC1)CN1CCCC1=O (stereo unspecified) when tested on Plasmodium falciparum.
8.838

Tell me Percent Effect of CCn1cc(CN2CCCC(COc3ccc(F)cc3)C2)cn1 (stereo unspecified) when tested on Plasmodium falciparum.
75.3

Tell me Percent Effect of `CCc1cnc(N)nc1NCCCn1cc(Cl)cn1` when tested on Plasmodium falciparum.
84.03

Tell me Percent Effect of `Cc1nnc(C2CCN(C(=O)c3ccsc3)CC2)s1` when tested on Plasmodium falciparum.
-17.33

Tell me Percent Effect of Cc1cc(C)n(CC(C)NC(=O)C2(c3ccc(F)cc3)CC2)n1 (stereo unspecified) when tested on Plasmodium falciparum.
-52.55

Tell me Percent Effect of COc1ccc(C(NCc2cccc(O)c2)C2CC2)cc1 (stereo unspecified) when tested on Plasmodium falciparum.
83.32

Tell me Percent Effect of CCn1cc(CNC2CCN(c3c(F)cccc3F)C2)cn1 (stereo unspecified) when tested on Plasmodium falciparum.
-15.51

Tell me Percent Effect of COc1ccc(C(NCc2cccc(C#N)c2)C2CC2)cc1 (stereo unspecified) when tested on Plasmodium falciparum.
47.49

Tell me Percent Effect of Cc1ccc(-c2cn[nH]c2C2CCCN(c3ncccn3)C2)cc1 (stereo unspecified) when tested on Plasmodium falciparum.
-2.919

Tell me Percent Effect of CCC(NC(N)=O)c1ccccc1OCC(=O)N1CCCC1 (stereo unspecified) when tested on Plasmodium falciparum.
-42

Tell me Percent Effect of `Cc1ccc2c(n1)N(CCN(C)C)CCN(Cc1c(C)noc1C)C2.O=C(O)C(F)(F)F.O=C(O)C(F)(F)F.O=C(O)C(F)(F)F` when tested on Plasmodium falciparum.
61.92
